Target: T1, TIA-Mut3 (Homo sapiens, UniProt P31483-2 1-274, Y206A;F242A)
T1 sequence: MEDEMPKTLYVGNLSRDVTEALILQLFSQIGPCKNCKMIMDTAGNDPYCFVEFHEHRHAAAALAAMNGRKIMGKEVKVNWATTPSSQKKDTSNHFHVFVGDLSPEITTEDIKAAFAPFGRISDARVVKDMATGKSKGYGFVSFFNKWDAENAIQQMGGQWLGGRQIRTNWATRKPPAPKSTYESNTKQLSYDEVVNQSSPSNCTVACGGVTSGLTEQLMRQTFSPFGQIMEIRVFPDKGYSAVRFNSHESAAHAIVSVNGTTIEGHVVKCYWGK
Assay: ITC
pKd: −log10 of the molar value.

| binder | pKd |
| --- | --- |
| UUUUUUUUUUUUUUUUUUUU (ssRNA) [U20 RNA] | 7.84 |
